Just for reference, ChEMBL document CHEMBL2086245 is where these values come from.

- System: Staphylococcus aureus
- TEST DETAILS: Antibacterial activity against Staphylococcus aureus ATCC 25923 after 24 hrs by broth microdilution method
- Type: functional
- CONDITION NOTES: ATCC 25923, 24 h
MIC: recorded values

Consider the following illustrative entries.
{"columns": ["RECORD SMILES", "MIC"],
 "data": [
  ["O=C1C(O)=C(Sc2ccccc2)C(=O)C(Sc2ccccc2)=C1Sc1ccccc1", "> 50 µg/mL"],
  ["O=C1C=C(Sc2ccccc2)C(=O)C=C1Sc1ccccc1", "> 50 µg/mL"]
]}

Consider now this further compound.
Data request: So what does the record say about MIC for Cc1ccc(SC2=C(O)C(=O)C(Sc3ccc(C)cc3)=C(Sc3ccc(C)cc3)C2=O)cc1 ?
Data returned: > 50 µg/mL
